B1: C22orf15 (parent)
chain: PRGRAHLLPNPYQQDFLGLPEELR

variants of: B1; assay: protein stability index of a GFP-peptide fusion (GPS, HEK-293T) (PSI 1-6); higher = more stable; conditions: c terminus: a fixed tail appended;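 note: lentivirally expressed fusions sorted by FACS into six bins by GFP to DsRed ratio, PSI derived from sequencing read proportions per bin multiplied by bin number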
Experimental endpoint: protein stability index
API doc: respond with a numeric literal and nothing else, no unit.

protein stability index in this record for E21N : 3.63

Further cases:
protein stability index in this record for L19G : 4.05

protein stability index in this record for G3P : 3.77

protein stability index in this record for G3E : 3.82

Where do these numbers come from? They come from the supplement of paper PMC10567573.
